Tested on: DLD-1 colon
test_details: NCI tumour cell line growth inhibition, 48 h
# maps each entry to its TGI

Sample records with TGI:
>  <compound>
COc1cc(C(=O)NC2CCc3cc(OC)c(OC)c(OC)c3-c3ccc(OC)c(=O)cc32)cc(OC)c1OC (stereo not given)

>  <tested_target>
DLD-1 colon

>  <attribute_measured>
TGI

>  <result>
> 100 µM

$$$$
>  <compound>
CC(=O)Oc1ccccc1

>  <tested_target>
DLD-1 colon

>  <attribute_measured>
TGI

>  <result>
> 100 µM

$$$$
>  <compound>
C[C@H]1C[C@@H]2[C@H]([C@@H](O)C[C@@]3(C)[C@H]2CC[C@]3(O)C(=O)CO)[C@@]2(C)C=CC(=O)C=C12

>  <tested_target>
DLD-1 colon

>  <attribute_measured>
TGI

>  <result>
> 100 µM

$$$$

// query // returns reported TGI for input `COc1cc(/C=C2\C(=O)N(C(=O)Cc3ccccc3)N=C2C)cc(OC)c1OC`
// result > 100 µM

// query Moving on to COc1ccc(C(c2ccccc2)(c2ccc(OC)cc2)N2C(=O)NC3C(CCCCC(=O)NCCCCCCOP(OCCC#N)N(C(C)C)C(C)C)SCC32)cc1 (stereo not given)
// result 29.4 µM

// query Moving on to CC(C)N(C(=O)C12C3C4C5(C#N)C3C1(C#N)C5C42C#N)C(C)C (stereo not given)
// result > 100 µM

// query Moving on to `O=C(C(=O)c1cc2ccccc2[nH]1)c1cc2ccccc2[nH]1`
// result > 347 µM

// query Moving on to C=CCC1(CN(C)C)CC/C(=C\c2ccc(OC)cc2)C1=O (stereo not given)
// result > 100 µM

// query Moving on to `N#C/C(=C\c1cc(O)cc(O)c1)C(N)=O`
// result > 100 µM

// query Moving on to COc1cc2c(c(OC)c1OC)-c1ccc(OC)c(=O)cc1C(NC(=O)COc1ccccc1)CC2 (stereo not given)
// result > 100 µM
